- target-desc: LuxR (Aliivibrio fischeri)
- Construct: a Δ-luxI derivative of V. fischeri ES114, in which the native lux operon behaves as the bioluminescent reporter; endogenous in cells; host or cells: V. fischeri ES114 (Δ-luxI)
- Sequence (P35327 whole entry): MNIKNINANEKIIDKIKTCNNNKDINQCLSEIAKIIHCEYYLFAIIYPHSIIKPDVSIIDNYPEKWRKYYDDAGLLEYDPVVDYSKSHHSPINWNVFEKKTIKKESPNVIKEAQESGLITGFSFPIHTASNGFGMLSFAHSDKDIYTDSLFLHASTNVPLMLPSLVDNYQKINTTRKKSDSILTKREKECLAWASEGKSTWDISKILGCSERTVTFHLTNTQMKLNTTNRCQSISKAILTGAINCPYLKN
- protocol: cell-based
- Type: cell-based, Vibrio fischeri
- measurement-conditions: 5 μM synthetic ligand against 5 μM OHHL; V. fischeri ES114 (Δ-luxI); normalized to OHHL
readout-type: V. fischeri-LuxR Inhibition [%]

# annotated cases, reported V. fischeri-LuxR Inhibition [%] shown
[[record]]
molecule = "CC(C)(C)OC(=O)NCCCCC(=O)N[C@H]1CCOC1=O [A22]"
data_value = "47%"

[[record]]
molecule = "O=C(Cc1ccc(N=Nc2ccccc2)cc1)NC1CCOC1=O (centres unmarked) [B22]"
data_value = "63%"


What measured V. fischeri-LuxR Inhibition [%] is associated with O=C(Cc1ccc(C(F)(F)F)cc1)N[C@H]1CCOC1=O [B23, 4-trifluoromethyl PHL] on LuxR (Aliivibrio fischeri)?
78%

What measured V. fischeri-LuxR Inhibition [%] is associated with COc1cc(C(C)=O)ccc1OCC(=O)N[C@H]1CCOC1=O [D16] on LuxR (Aliivibrio fischeri)?
40%

What measured V. fischeri-LuxR Inhibition [%] is associated with O=C(Cc1c(F)c(F)c(F)c(F)c1F)N[C@H]1CCOC1=O [B19, pentafluoroaromatic PHL] on LuxR (Aliivibrio fischeri)?
40%

* * *

The following molecules are shown together with reported activation at 10 µM values.
- target-desc: TraR (Agrobacterium tumefaciens, UniProt P33905)
- Construct: These strains lack their AHL synthase (I) genes, but retain their native R genes; endogenous in cells; host or cells: A. tumefaciens WCF47 (Δ-traI) with PtraI-lacZ plasmid pCF372
- Sequence (P33905 whole entry): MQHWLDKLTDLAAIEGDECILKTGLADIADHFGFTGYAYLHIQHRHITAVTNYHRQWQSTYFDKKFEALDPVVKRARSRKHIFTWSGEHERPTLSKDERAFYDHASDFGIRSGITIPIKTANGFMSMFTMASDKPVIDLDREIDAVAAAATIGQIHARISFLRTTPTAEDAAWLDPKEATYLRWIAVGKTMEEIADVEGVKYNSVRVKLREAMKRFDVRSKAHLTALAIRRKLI
- protocol: cell-based
- measurement-conditions: read-out: A. tumefaciens-TraR Activation [%]
Unit % implied. Number only.

[[record]]
molecule = "CCCC(=O)CC(=O)N[C@H]1CCOC1=O"
data_value = 1


I have this molecule here, O=C(Cc1ccc(C(F)(F)F)cc1)N[C@H]1CCOC1=O , and I need its recorded activation at 10 µM.
2

I have this molecule here, CCCCCCCCCCCC(=O)N[C@H]1CCOC1=O , and I need its recorded activation at 10 µM.
1

I have this molecule here, CCCCCC(=O)CC(=O)N[C@H]1CCOC1=O [compound 1, N-(3-oxo-octanoyl)-L-homoserine lactone, reference compound] , and I need its recorded activation at 10 µM.
100

I have this molecule here, O=C(Cc1ccc([N+](=O)[O-])cc1)NC1CCOC1=O (centres unmarked) , and I need its recorded activation at 10 µM.
1

I have this molecule here, CCCCCCCCCC(=O)NC1CCOC1=O (centres unmarked) , and I need its recorded activation at 10 µM.
2

I have this molecule here, O=C(Cc1ccc(-c2ccccc2)cc1)NC1CCOC1=O (centres unmarked) , and I need its recorded activation at 10 µM.
0

I have this molecule here, O=C(Cc1ccc(-c2ccccc2)cc1)N[C@H]1CCOC1=O , and I need its recorded activation at 10 µM.
0

I have this molecule here, CCCCCCCC(=O)N[C@H]1CCOC1=O , and I need its recorded activation at 10 µM.
7

I have this molecule here, O=C(Cc1ccc(Br)cc1)N[C@H]1CCOC1=O [A17, 4-bromo-phenylacetanoyl HL, reference compound] , and I need its recorded activation at 10 µM.
1

I have this molecule here, CCCCCCC(=O)NC1CCOC1=O (centres unmarked) , and I need its recorded activation at 10 µM.
4
